For each of the compounds below, state its pEC50.
- Test system: HIV-1 containing A62V/V75I/F77L/F116Y/Q151M
- Assay Overview: microbe, parasite or virus in culture
- Assay type: cell-based
- Assay Context: Human immunodeficiency virus 1, Lymphocyte
Structures can show the parent of a compound that is named as a salt.
One number for each entry, as −log10 of the molar value.

Some compounds with recorded pEC50:
Nc1nc(=O)n([C@@H]2CS[C@H](CO)O2)cc1F (relative stereo) [(−)FTC]    6.40
CC(C)OC(=O)OCOP(=O)(CO[C@H](C)Cn1cnc2c(N)ncnc21)OCOC(=O)OC(C)C [TDF, Tenofovir disoproxil fumarate]    6.15
Nc1ccn([C@@H]2CS[C@H](CO)O2)c(=O)n1    6.30
N#CC[C@H](C1CCCC1)n1cc(-c2ncnc3[nH]ccc23)cn1    7.52
OC[C@@H]1CC[C@H](n2cnc3c(O)ncnc32)O1    4.39

Each compound below has a reported value. Please supply its pEC50.
1. Cc1cn([C@H]2C[C@H](N=[N+]=[N-])[C@@H](CO)O2)c(=O)[nH]c1=O
2. O=C1Nc2ccc(Cl)cc2[C@@](C#CC2CC2)(C(F)(F)F)O1
3. Cc1cn([C@H]2C=C[C@@H](CO)O2)c(=O)[nH]c1=O [Compound D4T, 2′,3′-dideoxy-2′,3′-didehydrothymidine]

a:
5.34
6.70
5.17
